system.tested: NS5B proteins of HCV genotype 1b (Con1) (Hepatitis C virus genotype 1b, UniProt Q9WMX2)
Construct: Each untagged protein was expressed with an 18 amino acid C-terminal truncation to enhance the solubility
Sequence (Q9WMX2 2420-2992): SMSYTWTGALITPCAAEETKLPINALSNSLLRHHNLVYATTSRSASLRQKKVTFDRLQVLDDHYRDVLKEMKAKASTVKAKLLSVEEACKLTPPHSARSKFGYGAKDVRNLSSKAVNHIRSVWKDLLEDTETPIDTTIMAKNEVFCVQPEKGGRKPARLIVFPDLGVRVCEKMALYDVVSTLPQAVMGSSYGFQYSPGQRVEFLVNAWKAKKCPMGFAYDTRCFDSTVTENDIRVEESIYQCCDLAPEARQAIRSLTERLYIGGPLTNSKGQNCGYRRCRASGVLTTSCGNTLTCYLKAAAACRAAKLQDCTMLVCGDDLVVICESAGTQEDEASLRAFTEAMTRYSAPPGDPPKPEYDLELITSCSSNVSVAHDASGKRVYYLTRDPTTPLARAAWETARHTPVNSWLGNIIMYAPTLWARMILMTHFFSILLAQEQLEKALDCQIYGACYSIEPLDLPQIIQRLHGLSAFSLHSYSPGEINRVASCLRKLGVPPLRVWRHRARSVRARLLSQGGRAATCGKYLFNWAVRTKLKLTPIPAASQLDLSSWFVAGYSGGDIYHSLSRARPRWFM
method.summary: HCV NS5B RdRp enzyme assay
conditions: 1b enzyme
readout: IC50 (nM)
Give bare numbers, in nM.

Batch request: IC50 for each of the following compounds.
1. CNC(=O)c1c(-c2ccc(F)cc2)oc2cc(NCC(F)(F)F)c(-c3ccc(OC)c(C(=O)NC4(c5ncccn5)CC(OC(F)F)C4)c3)cc12 (single isomer, unassigned) [Example 64b]
2. CNC(=O)c1c(-c2ccc(F)cc2)oc2ccc(-c3cc(C(=O)NC4(c5ncccn5)CC(OC)C4)ccc3C)c(F)c12 (single isomer, unassigned) [Example 10b]
3. CNC(=O)c1c(-c2ccc(F)cc2)oc2cc(CCC(F)(F)F)c(-c3ccc(OC)c(C(=O)NC4(c5ncccn5)CC(OC(F)(F)F)C4)c3)cc12 (single isomer, unassigned) [Example 47a]
4. CNC(=O)c1c(-c2ccc(F)cc2)oc2cc(NCC(F)(F)F)c(-c3cccc(C(=O)NC4(c5ncccn5)CC(OC(F)F)C4)c3)cc12 (single isomer, unassigned) [Example 65b]
5. CNC(=O)c1c(-c2ccc(F)cc2)oc2cc(CCC(F)(F)F)c(-c3cccc(C(=O)NC4(c5ncccn5)CC(OC(F)(F)F)C4)c3)cc12 (single isomer, unassigned) [Example 45a]

Key:
3.97
10
20
4.73
20

====

For each record, write down the corresponding log10 EC50.
System: genotype 1b (Con-1) HCV replicon in Huh-7 cells
method.summary: HCV replicon luciferase assay
Assay type: cell-based
conditions: Hepatitis C virus, Huh-7, 72 h, 1b replicon, Huh-7, Renilla luciferase, 3 days incubation
Please be aware that the numbers have been log10-transformed from EC50 in nM.

Consider the following illustrative entries.
compound="CNC(=O)c1c(-c2ccc(F)cc2)oc2cc(CCC(F)(F)F)c(-c3cc(C(=O)NC4(C)CC(OC(F)F)C4)c(OC)cc3C)cc12 (single isomer, unassigned) [Example 53a]" system_tested="genotype 1b (Con-1) HCV replicon in Huh-7 cells" readout="log10 EC50" experimental_value=1.78
compound="CNC(=O)c1c(-c2ccc(F)cc2)oc2ccc(-c3cc(C(=O)NC4(c5ncccn5)CC(F)(F)C4)ccc3C)c(F)c12 [Example 15]" system_tested="genotype 1b (Con-1) HCV replicon in Huh-7 cells" readout="log10 EC50" experimental_value=1.48
compound="CCN(c1cc2oc(-c3ccc(F)cc3)c(C(=O)NC)c2cc1-c1cccc(C(=O)NC2(c3ncccn3)CC(F)C2)c1)S(C)(=O)=O (stereo not drawn) [Example 25]" system_tested="genotype 1b (Con-1) HCV replicon in Huh-7 cells" readout="log10 EC50" experimental_value=0.72
compound="CCCc1cc2oc(-c3ccc(F)cc3)c(C(=O)NC)c2cc1-c1ccc(F)c(C(=O)NC2(c3ncccn3)CC(OC(F)F)C2)c1 (stereo not drawn) [Example 32]" system_tested="genotype 1b (Con-1) HCV replicon in Huh-7 cells" readout="log10 EC50" experimental_value=0.96
compound="CNC(=O)c1c(-c2ccc(F)cc2)oc2ccc(-c3cc(C(=O)NC4(c5ncccn5)CC(F)C4)c(OC)cc3C)c(F)c12 (stereo not drawn) [Example 19]" system_tested="genotype 1b (Con-1) HCV replicon in Huh-7 cells" readout="log10 EC50" experimental_value=0.72

Batch request: log10 EC50 for each of the following compounds.
1. CCN(c1cc2oc(-c3ccc(F)cc3)c(C(=O)NC)c2c(F)c1-c1cccc(C(=O)NC2(c3ncccn3)CC(OC(F)F)C2)c1)S(C)(=O)=O (stereo not drawn) [Example 21]
2. CCCc1cc2oc(-c3ccc(F)cc3)c(C(=O)NC)c2cc1-c1cccc(C(=O)NC2(c3ncccn3)CC(OC(F)F)C2)c1 (stereo not drawn) [Example 33]
3. CCCc1cc2oc(-c3ccc(F)cc3)c(C(=O)NC)c2cc1-c1cccc(C(=O)NC2(C)CC(OC(F)F)C2)c1 (single isomer, unassigned) [Example 55a]
4. CNC(=O)c1c(-c2ccc(F)cc2)oc2ccc(-c3cc(C(=O)NC4(c5ncccn5)CC(=O)C4)ccc3C)c(F)c12 [Example 6]
5. CNC(=O)c1c(-c2ccc(F)cc2)oc2cc(CCC(F)(F)F)c(-c3ccc(OC)c(C(=O)NC4(c5ncccn5)CC(OC(F)F)C4)c3)cc12 (stereo not drawn) [Example 43]
6. CNC(=O)c1c(-c2ccc(F)cc2)oc2ccc(-c3cc(C(=O)NC4(c5ncccn5)CC(F)C4)ccc3C)c(F)c12 (stereo not drawn) [Example 16]
7. CNC(=O)c1c(-c2ccc(F)cc2)oc2cc(CCC(F)(F)F)c(-c3ccc(F)c(C(=O)NC4(C)CC(OC(F)F)C4)c3)cc12 (single isomer, unassigned) [Example 63a]

Key:
[0.35, 0.66, 1.48, 1.30, 0.75, 0.82, 1.00]

====

system.tested: NS5B proteins of HCV genotype 1b (Con1) (Hepatitis C virus genotype 1b)
Construct: Each untagged protein was expressed with an 18 amino acid C-terminal truncation to enhance the solubility
method.summary: HCV NS5B RdRp enzyme assay
conditions: 1b enzyme
For each record, write down the corresponding pIC50.
Numbers only, as −log10 of the molar value.

Consider the following illustrative entries.
compound="CNC(=O)c1c(-c2ccc(F)cc2)oc2ccc(-c3cc(C(=O)NC4(c5ncccn5)CC(F)C4)cc(F)c3C)c(F)c12 (centres unmarked)" system_tested="NS5B proteins of HCV genotype 1b (Con1) (Hepatitis C virus genotype 1b)" experimental_value=7.05
compound="CNC(=O)c1c(-c2ccc(F)cc2)oc2cc(CCC(F)(F)F)c(-c3ccc(F)c(C(=O)NC4(C)CC(OC(F)F)C4)c3)cc12 (single isomer, unassigned) [Example 63b]" system_tested="NS5B proteins of HCV genotype 1b (Con1) (Hepatitis C virus genotype 1b)" experimental_value=8.52
compound=CNC(=O)c1c(-c2ccc(F)cc2)oc2ccc(-c3cc(C(=O)NC4(c5ncccn5)CC(OC)(OC)C4)ccc3C)c(F)c12 system_tested="NS5B proteins of HCV genotype 1b (Con1) (Hepatitis C virus genotype 1b)" experimental_value=8.00
compound="CNC(=O)c1c(-c2ccc(F)cc2)oc2ccc(-c3cc(C(=O)NC4(c5ncccn5)CC(O)C4)cc(F)c3C)c(F)c12 (single isomer, unassigned) [Example 9a]" system_tested="NS5B proteins of HCV genotype 1b (Con1) (Hepatitis C virus genotype 1b)" experimental_value=6.24
compound="CNC(=O)c1c(-c2ccc(F)cc2)oc2ccc(-c3cc(C(=O)NC4(c5ncccn5)CC(O)C4)ccc3C)c(F)c12 (single isomer, unassigned) [Example 5b]" system_tested="NS5B proteins of HCV genotype 1b (Con1) (Hepatitis C virus genotype 1b)" experimental_value=6.64

Batch request: pIC50 for each of the following compounds.
1. CNC(=O)c1c(-c2ccc(F)cc2)oc2ccc(-c3cc(C(=O)NC4(c5ncccn5)CC(O)C4)cc(F)c3C)c(F)c12 (single isomer, unassigned) [Example 9b]
2. CNC(=O)c1c(-c2ccc(F)cc2)oc2ccc(-c3cc(C(=O)NC4(c5ncccn5)CC(OC)C4)cc(F)c3C)c(F)c12 (single isomer, unassigned) [Example 11a]
3. CNC(=O)c1c(-c2ccc(F)cc2)oc2ccc(-c3cc(C(=O)NC4(c5ncccn5)CC(OC)C4)c(OC)cc3C)c(F)c12 (single isomer, unassigned) [Example 13b]

Key:
6.51
7.05
7.70

====

system.tested: NS5B proteins of HCV genotype 1b (Con1) (Hepatitis C virus genotype 1b, UniProt Q9WMX2)
Construct: Each untagged protein was expressed with an 18 amino acid C-terminal truncation to enhance the solubility
method.summary: HCV NS5B RdRp enzyme assay
conditions: 1b enzyme
For each record, write down the corresponding log10 of IC50.
Please be aware that the numbers have been log10-transformed from IC50 in nM.

Consider the following illustrative entries.
compound="CNC(=O)c1c(-c2ccc(F)cc2)oc2cc(NCC(F)(F)F)c(-c3ccc(OC)c(C(=O)NC4(c5ncccn5)CC(OC(F)F)C4)c3)cc12 (single isomer, unassigned) [Example 64a]" system_tested="NS5B proteins of HCV genotype 1b (Con1) (Hepatitis C virus genotype 1b, UniProt Q9WMX2)" experimental_value=0.52
compound="CCCc1cc2oc(-c3ccc(F)cc3)c(C(=O)NC)c2cc1-c1ccc(F)c(C(=O)NC2(c3ncccn3)CC(OC(F)(F)F)C2)c1 (single isomer, unassigned) [Example 48b]" system_tested="NS5B proteins of HCV genotype 1b (Con1) (Hepatitis C virus genotype 1b, UniProt Q9WMX2)" experimental_value=0.92
compound="CCOc1cc2oc(-c3ccc(F)cc3)c(C(=O)NC)c2cc1-c1ccc(OC)c(C(=O)NC2(c3ncccn3)CC(OC(F)F)C2)c1 (single isomer, unassigned) [Example 66a]" system_tested="NS5B proteins of HCV genotype 1b (Con1) (Hepatitis C virus genotype 1b, UniProt Q9WMX2)" experimental_value=0.28

Batch request: log10 of IC50 for each of the following compounds.
1. CCOc1cc2oc(-c3ccc(F)cc3)c(C(=O)NC)c2cc1-c1ccc(OC)c(C(=O)NC2(c3ncccn3)CC(OC(F)F)C2)c1 (single isomer, unassigned) [Example 66b]
2. CNC(=O)c1c(-c2ccc(F)cc2)oc2ccc(-c3cc(C(=O)NC4(c5ncccn5)CC(=O)C4)ccc3C)c(F)c12
3. CNC(=O)c1c(-c2ccc(F)cc2)oc2cc(NCC(F)(F)F)c(-c3cccc(C(=O)NC4(c5ncccn5)CC(OC(F)F)C4)c3)cc12 (single isomer, unassigned) [Example 65a]
4. CCCc1cc2oc(-c3ccc(F)cc3)c(C(=O)NC)c2cc1-c1ccc(OC)c(C(=O)NC2(c3ncccn3)CC(OC(F)(F)F)C2)c1 (single isomer, unassigned) [Example 51b]
5. CNC(=O)c1c(-c2ccc(F)cc2)oc2cc(CCC(F)(F)F)c(-c3ccc(OC)c(C(=O)NC4(c5ncccn5)CC(OC(F)(F)F)C4)c3)cc12 (single isomer, unassigned) [Example 47b]
6. CNC(=O)c1c(-c2ccc(F)cc2)oc2cc(CCC(F)(F)F)c(-c3ccc(F)c(C(=O)NC4(c5ncccn5)CC(OC(F)F)C4)c3)cc12 (centres unmarked)

Key:
1. 0.31
2. 1.00
3. 0.66
4. 1.30
5. 1.00
6. 0.88

Batch request: log10 of IC50 for each of the following compounds.
1. CNC(=O)c1c(-c2ccc(F)cc2)oc2cc(CCC(F)(F)F)c(-c3cccc(C(=O)NC4(C)CC(OC(F)F)C4)c3)cc12 (single isomer, unassigned) [Example 59b]
2. CNC(=O)c1c(-c2ccc(F)cc2)oc2ccc(-c3cc(C(=O)NC4(c5ncccn5)CC(OC)C4)cc(F)c3C)c(F)c12 (single isomer, unassigned) [Example 11b]

Key:
1: 1.00; 2: 1.48
